meta.source: ChEMBL document CHEMBL1125506

test: Partition coefficient (logD); type: physicochemical; conditions: octanol/water
Hi there, I'd appreciate the recorded logD for every entry that follows.
Could you keep your reply to the number by itself?

## Task Could you share which logD value was measured for CC(C)(C)n1cc(C(=O)O)c(=O)c2cc(F)c(N3C[C@H]4C[C@]3(C)CN4)nc21.Cl ?
## Result -0.37

## Task What logD value was documented for this molecule, Cc1c(F)c(N2C[C@H]3C[C@@H]2CN3)nc2c1c(=O)c(C(=O)O)cn2C1CC1 ?
## Result 0.48

## Task Find the recorded logD belonging to C[C@@H]1[C@H]2C[C@H](CN2)N1c1nc2c(cc1F)c(=O)c(C(=O)O)cn2C(C)(C)C.Cl and report it.
## Result 0.17
